- Tested on: gene encoding adrenomedullin
- TEST_SUMMARY: Adrenomedullin gene expression in Hep3B cells (microarray)
- Type: cell-based, human
- CONDITION_INFO: 25 μM compound, 6 hrs, average of two determinations
QUANTITY_NAME: Adrenomedullin gene expression, fold-increase above non-treated control (fold)
Your answer should be a plain number; it is taken to be in fold.

Noted for O=C(O)CNC(=O)c1nc(Cl)c2ccccc2c1O [Compound H] : its Adrenomedullin gene expression, fold-increase above non-treated control reads 1.298

Noted for COc1ccc(CCN(CCC(=O)NO)S(=O)(=O)c2ccc(NC(=O)N(Cc3ccccc3)Cc3ccccc3)cc2)cc1 [Compound B] : its Adrenomedullin gene expression, fold-increase above non-treated control reads 8.334

Noted for O=C(O)CNC(=O)c1ncc2cc(Sc3ccccc3)ccc2c1O [Compound C] : its Adrenomedullin gene expression, fold-increase above non-treated control reads 3.896

Noted for O=C(O)c1c[nH]c2c(ccc3cccnc32)c1=O [Compound A] : its Adrenomedullin gene expression, fold-increase above non-treated control reads 3.582

Noted for O=C(O)CNC(=O)c1ncc2cc(Oc3ccccc3)ccc2c1O [Compound G] : its Adrenomedullin gene expression, fold-increase above non-treated control reads 3.278
